Listed here are variants together with their documented protein stability index.
B1: DFFB (parent)
chain: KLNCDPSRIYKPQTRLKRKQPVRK

- Variants of: B1
- TEST DETAILS: protein stability index of a GFP-peptide fusion (GPS, HEK-293T) (PSI 1-6); higher = more stable;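 further: lentivirally expressed fusions sorted by FACS into six bins by GFP to DsRed ratio, PSI derived from sequencing read proportions per bin multiplied by bin number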
- COND: c terminus: a fixed tail appended
Reply with just the number.

Kindly note the recorded protein stability index for `I9D` , which is 4.04

Measured protein stability index of `P21A` : 4.07

Measured protein stability index, `V22I` : 3.78

Quick note, protein stability index for `Q13W` landed at 3.6

Documented protein stability index of `P21S` : 3.13

variant `P6N` , protein stability index observed: 3.79

Short answer for `R18F` : protein stability index was 3.44

Record `Q20C` , field protein stability index: 3.6

Quick note, protein stability index for `I9G` landed at 3.47

Summary for this variant, `P6I` : protein stability index is 3.11

meta.source: the supplement of paper PMC10567573
